TESTED_SYSTEM: isolated recombinant JAK1 kinase domain (Homo sapiens (Human))
Sequence (P23458 875-1153): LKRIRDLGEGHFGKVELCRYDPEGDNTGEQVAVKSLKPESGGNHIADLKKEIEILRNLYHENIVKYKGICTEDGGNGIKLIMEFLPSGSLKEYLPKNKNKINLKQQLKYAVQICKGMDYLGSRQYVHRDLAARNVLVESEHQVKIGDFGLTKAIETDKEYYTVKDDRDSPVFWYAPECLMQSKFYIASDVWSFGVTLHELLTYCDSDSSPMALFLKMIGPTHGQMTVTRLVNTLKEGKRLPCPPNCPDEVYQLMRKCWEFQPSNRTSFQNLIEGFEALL
ASSAY_PROCEDURE: JAK1 enzyme assay (Caliper LabChip, Ki)
Type: biochemical
ASSAY_CONDITIONS: read-out: JAK1 Ki
Assignment: determine reported pKi for the given compounds.
Numbers only, as −log10 of the molar value.

>>> result_number("N#CCC1(n2cc(C(N)=O)c(NC(=O)C3CC3)n2)CCN(Cc2cccc(NS(=O)(=O)c3ccccc3)c2)CC1")
8.21

Hi, could you look up pKi for each item in my list?
1. COC(=O)Nc1nn(C2(CC#N)CCN(Cc3ccc(-c4ccccc4)nc3)CC2F)cc1C(N)=O (centres unmarked)
2. CS(=O)(=O)Nc1cc(F)cc(CN2CCC(CC#N)(n3cc(C(N)=O)c(NC(=O)C4CC4)n3)CC2)c1
3. CC(C)S(=O)(=O)Nc1cccc(CN2CCC(CC#N)(n3cc(C(N)=O)c(NC(=O)C4CC4)n3)CC2)c1
4. CCc1nc(-c2ccc(CN3CCC(CC#N)(n4cc(C(N)=O)c(NC(=O)OC)n4)C(F)C3)cc2)cs1 (centres unmarked)

Reply |
[9.59, 8.92, 8.39, 9.52]

Data credit: patent US11731943B2
